tested on: HCT-116; assay: NCI tumour cell line growth inhibition, 48 h
The source made the active and inactive calls. No stated cut-off is given here; in the data, active = GI50 up to about 1.1 µM and inactive = higher.
The reader will find reported GI50 values listed item by item below.

# compound, GI50
rows = [
    ("CSC1=C(c2ccc(Cl)cc2)SC(N2CCCCC2)N1c1ccc([N+](=O)[O-])cc1 (stereo not given)", "23 µM (inactive)"),
    ("CC(=O)OC1=NN=C2COC(c3ccccc3OC(C)=O)=NN2C1", "> 50 µM (inactive)"),
    ("CO/N=C1/c2sccc2[C@H](NC(=O)C(Cc2ccccc2)NC(=O)OC(C)(C)C)[C@@H]1O (stereo not given in full)", "> 100 µM (inactive)"),
    ("N#Cc1cc(NC(=O)c2ccccc2)c(=O)n2c1[nH]c1ccccc12", "21.4 µM (inactive)"),
    ("COc1c(C(C)(C)C)cc(CC2C(=O)C=CC2=O)cc1C(C)(C)C", "3.13 µM (inactive)"),
]

* * *

system: RPMI-8226; experiment: NCI tumour cell line growth inhibition, 48 h
Active and inactive are the calls of the source. Cut-off read from the data, not from the text of the source: active = GI50 up to about 1.1 µM and inactive = higher.
Possible outcomes: class 1 (active), class 0 (inactive)

# structure.string, target.system, category
records = [
    ("COc1cc([C@@H]2c3cc4c(cc3C[C@H]3COC(=O)[C@@H]32)OCO4)cc2c1OCO2", "RPMI-8226", "class 1"),
    ("C[Si](C)(C)/N=C1\\N2C(=NC1(C(F)(F)F)C(F)(F)F)Sc1ccccc12", "RPMI-8226", "class 0"),
    ("NC(=O)c1nnc2ccc(F)cc2c1N", "RPMI-8226", "class 0"),
    ("O=C(OCc1ccccc1)c1nc2ccccc2n1S(=O)(=O)c1ccccc1", "RPMI-8226", "class 0"),
    ("Cc1c2oc(=O)c(C#N)cc2c2ccccn12", "RPMI-8226", "class 0"),
]

* * *

tested on: HT-29; assay: NCI tumour cell line growth inhibition, 48 h
Active and inactive are the calls of the source. Rule as the data show it: active = GI50 up to about 1.1 µM and inactive = higher.
The reader will find reported GI50 values listed item by item below.

# molecule, GI50
measured = [
    ("O=C1OC(c2ccccc2)=N/C1=C/NC(CO)C(=O)O (stereo not given)", "> 100 µM (inactive)"),
    ("COc1cc2ccccc2oc1=O", "> 100 µM (inactive)"),
    ("O=C(/C=C/C=C/c1ccccc1)c1ccccc1", "16.2 µM (inactive)"),
    ("CC12CCC3c4cc(Br)c(O)c(Br)c4CCC3C1CCC2O (stereo not given)", "15.4 µM (inactive)"),
    ("CCOC(=O)C(C#N)C1=CC(=O)C(=O)c2ccc(OC)cc21 (stereo not given)", "31.6 µM (inactive)"),
    ("O=C(OCc1ccccc1)c1nc2ccccc2n1S(=O)(=O)c1ccccc1", "> 100 µM (inactive)"),
    ("CC1(C)OCC(C2OC(C)(C)OC2[C@H]2O[C@@]3(O)[C@H]4[C@H](C=CC[C@@H]42)[C@@H](OCc2ccccc2)[C@H](OCc2ccccc2)[C@H]3OCc2ccccc2)O1 (stereo not given in full)", "17.9 µM (inactive)"),
    ("O=C1C(/N=N/c2ccc(-c3nc4ccccc4o3)cc2)NC(=S)N1c1ccccc1 (stereo not given)", "> 100 µM (inactive)"),
    ("Cc1nc2[nH]ccn2c(=O)c1CCO", "> 10 µM (inactive)"),
    ("COc1cccc(N2C(=O)C3c4[nH]c5ccccc5c4C4c5ccccc5CCC4C3C2=O)c1 (stereo not given)", "9.93 µM (inactive)"),
    ("CCC1=NC(N/N=C/c2ccco2)=N/C1=C\\c1ccco1", "> 100 µM (inactive)"),
    ("CSc1ncc2c(n1)-c1ccccc1OC2NC1CC1 (stereo not given)", "> 100 µM (inactive)"),
    ("CC(=O)C(=O)NC1/C=C(C)\\C=C/C(O)C/C=C(C)\\C=C/C(O)CC2OC(=O)C1(C)C(=O)C2C (stereo not given)", "> 100 µM (inactive)"),
    ("CCCC(O)c1ccc2[nH]c3c(C)cc([N+](=O)[O-])c(C)c3c2c1 (stereo not given)", "68.1 µM (inactive)"),
    ("COc1c(C)c(C/C=C(\\C)CC/C=C(\\C)CC/C=C(\\C)CCC=C(C)C)c(OC)c2ccccc12", "> 100 µM (inactive)"),
    ("O[C@H]1[C@H]2c3cc4c(cc3CN3CCC(=C[C@@H]1O)[C@H]23)OCO4 [LYCORINE]", "1.46 µM (inactive)"),
    ("O=C1[C@@H]2[C@@H](c3ccccc3)[C@]2(Cl)C(=O)[C@H]2[C@H](c3ccccc3)[C@@]12Cl", "> 100 µM (inactive)"),
    ("SCc1ccc(-c2ccc(CS)cc2)cc1", "26.9 µM (inactive)"),
    ("CC[N+]1(C)CCC(O)(c2ccc(C)cc2)C(C(=O)c2ccc(C)cc2)C1 (stereo not given)", "42.7 µM (inactive)"),
    ("C=CCOC(=O)NC1C(OC(C)[C@@H](NC(=O)OCc2ccccc2)C(=O)OC(C)(C)C)OC(COC(C)=O)C(OC(C)=O)C1OC(C)=O (stereo not given in full)", "> 100 µM (inactive)"),
]
